- tgt: Cytochrome P450 3A4 (Homo sapiens)
- assay-summary: Cytochrome panel assay with activity outcomes
- measurement-parameters: recombinant CYP, pro-luciferin dealkylation, luminescence, p450-cyp3a4; series mostly up to 57.1 µM
Among all 16,000 compounds or so, about 5,100 (32%) were called active. Roughly 25% stayed inconclusive and do not appear here. Calls follow the shape of the dose curve; as a rule, active = well fitted curve in the direction sought with a large enough effect; inconclusive = small, poorly fitted or top-dose-only effect, or effect the other way; inactive = no such curve, though single readings can be large or run the other way. The list shows a part of the results.
Lab note: assign the record to one of active, inactive

// param item: `Cc1ccccc1-c1cncnc1N1CCN(C)CC1` ; yields the recorded call
active

Kindly provide the recorded test outcome for the following compound: `CCn1cc(C(=O)O)c(=O)c2cnc(N3CCNCC3)nc21`
inactive

Assay outcome for `O=c1c(-c2cccs2)nc2cnc(N3CCNCC3)nc2n1C1CC1` : what was it?
active

Answer briefly: the call reported for `CCn1c(-c2ccccc2Cl)nn(CC(=O)Nc2ccc(OC)cc2)c1=S` in this assay.
active

Returns: the outcome recorded for `Cc1cc(C)c(C(N)=O)c(NC(=O)Nc2ccccc2)n1` in this assay.
inactive

What was the test verdict on `O=c1c(-c2ccc(F)cc2)nc2cnc(N3CCOCC3)nc2n1C1CC1` ?
inactive

Recorded call for `COC(=O)Cn1nc(-c2ccccc2)n(-c2ccccc2)c1=S` ?
inactive

Which outcome did this test record for the compound `CC(=O)NCCn1c(SCC(=O)NCc2ccco2)nc2ccccc2c1=O` ?
active

Which outcome did this test record for the compound `COc1ccc(N(CC(=O)NCc2cccc(OC)c2)S(=O)(=O)c2c(C)noc2C)cc1` ?
active

For `O=C(CSc1nc2nc(-c3cccs3)cc(C(F)(F)F)c2c(=O)[nH]1)NCc1ccco1` , what call appears in the results of this test?
active

# fetch the recorded call for `CNC(=O)[C@@H]1O[C@@H](n2cnc3c(N)ncnc32)[C@@H](O)[C@H]1O` here
inactive

// return assay outcome for `CCOc1ccc(N(CC(=O)NCc2ccc(OC)cc2)S(=O)(=O)c2c(C)noc2C)cc1`
active

Any idea what this test logged for `Cc1cc(Cl)ccc1OCC(=O)NCc1ccncc1` ?
active

Returns: the outcome recorded for `COc1ccccc1-c1cncnc1N1CCN(C)CC1` in this assay.
active

State the result this test recorded for `CCCn1c(-c2cccs2)nc2nc3ccccc3nc21` .
active

# outcome recorded in this test, key = `NC(N)=NC(=O)c1nc(Cl)c(N)nc1N`
inactive

Returns: the outcome recorded for `CCn1nc(C(=O)Nc2ccccc2C)c(Cl)c1Cl` in this assay.
inactive

Any idea what this test logged for `O=c1cnc2cnc(N3CCOCC3)nc2n1C1CC1` ?
inactive

GET /call?item= `COc1ccc(CNc2ccnc(-c3cccnc3)n2)c(OC)c1` returns the recorded outcome of this test.
active

Called result for `COCCn1c(=O)c(-c2ccc(Cl)cc2)nc2cnc(Nc3ccccc3)nc21`
inactive

Which outcome did this test record for the compound CCS(=O)(=O)N1CCC(C(=O)NCC2CCCO2)CC1 (configuration not stated) ?
inactive

What was the test verdict on `CN1Cc2c(C(=O)OC(C)(C)C)ncn2-c2ccsc2C1=O` ?
inactive

// return assay outcome for `O=C(CSc1nnc(-c2ccco2)n1-c1ccccc1)NCc1ccco1`
active

Status in this test for `Cc1ccc(C)c(-c2cc(C(=O)Nc3sc(C)c(C)c3C(N)=O)c3ccccc3n2)c1` ?
active

Test call, this compound: `Cc1cc(NC(=O)c2ccccc2Cl)c(C(C)C)cc1O`
active

For `CC(/C=C/c1ccccc1)=N/NC(=O)CNC(=O)c1ccc2c(c1)OCO2` , which call appears in the assay record?
active

Returns: the outcome recorded for `CS(=O)(=O)Nc1c(O)ccc2c1CCC[C@H]2C1=NCCN1` in this assay.
inactive

Hi, do you know how `CN1CCN(c2ncncc2-c2ccccc2Cl)CC1` came out in this test?
active

Dear colleague, could you share the recorded outcome for `Cc1cc(Cl)ccc1OCC(=O)N/N=C1\CCCc2ccccc21` when you have a moment?
active

// param item: `CCCCNC(=O)C(=O)c1ccccc1NC(C)=O` ; yields the recorded call
inactive

Recorded test outcome, item `Cc1cc(C)c2[nH]c(=O)c(CN(Cc3ccco3)C(=O)c3cccs3)cc2c1`
active

Query: recorded result category for `COc1c(/C=N/Nc2ccc([N+](=O)[O-])cc2[N+](=O)[O-])c(C)nn1-c1ccccc1` in this test
inactive

Can you look up the reported call for `COc1cccc(Nc2ncc3nc(-c4cc(F)cc(F)c4)c(=O)n(CCC#N)c3n2)c1` for me?
active

Check the results log: what was the call for `COc1cccc(CNCCNC(=O)c2nonc2N)c1` ?
inactive

Identify the outcome logged in this assay for the compound shown: `O=c1c(-c2ccccc2)nc2cnc(N3CCOCC3)nc2n1C1CC1`
inactive

What classification did `COC(=O)c1sccc1NC(=O)c1cc(-c2cc(C)ccc2C)nc2ccccc12` end up with in this test?
active

Entry `Cc1ccccc1NC(=S)NN1CCN(C)CC1` : call = ?
inactive
